molecular target: Serotonin 3 (5-HT3) receptor (Rattus norvegicus, UniProt P35563+Q9JJ16); test: Binding affinity against 5-hydroxytryptamine 3 (5-HT3) receptor in rat brain cortical membranes using radioligand [3H]quipazine
Sequence (P35563 whole entry): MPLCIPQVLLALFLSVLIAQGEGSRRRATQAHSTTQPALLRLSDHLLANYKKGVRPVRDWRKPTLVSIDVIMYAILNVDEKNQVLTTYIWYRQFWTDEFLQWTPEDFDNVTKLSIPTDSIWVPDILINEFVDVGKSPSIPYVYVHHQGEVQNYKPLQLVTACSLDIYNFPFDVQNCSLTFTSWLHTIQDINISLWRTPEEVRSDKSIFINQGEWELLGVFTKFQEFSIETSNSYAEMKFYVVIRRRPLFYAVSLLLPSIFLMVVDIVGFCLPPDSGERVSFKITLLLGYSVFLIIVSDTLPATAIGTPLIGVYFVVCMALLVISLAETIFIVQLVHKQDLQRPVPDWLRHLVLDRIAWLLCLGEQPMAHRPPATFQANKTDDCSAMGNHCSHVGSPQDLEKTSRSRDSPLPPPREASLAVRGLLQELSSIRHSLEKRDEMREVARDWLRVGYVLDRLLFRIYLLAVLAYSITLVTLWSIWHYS
Sequence (Q9JJ16 whole entry): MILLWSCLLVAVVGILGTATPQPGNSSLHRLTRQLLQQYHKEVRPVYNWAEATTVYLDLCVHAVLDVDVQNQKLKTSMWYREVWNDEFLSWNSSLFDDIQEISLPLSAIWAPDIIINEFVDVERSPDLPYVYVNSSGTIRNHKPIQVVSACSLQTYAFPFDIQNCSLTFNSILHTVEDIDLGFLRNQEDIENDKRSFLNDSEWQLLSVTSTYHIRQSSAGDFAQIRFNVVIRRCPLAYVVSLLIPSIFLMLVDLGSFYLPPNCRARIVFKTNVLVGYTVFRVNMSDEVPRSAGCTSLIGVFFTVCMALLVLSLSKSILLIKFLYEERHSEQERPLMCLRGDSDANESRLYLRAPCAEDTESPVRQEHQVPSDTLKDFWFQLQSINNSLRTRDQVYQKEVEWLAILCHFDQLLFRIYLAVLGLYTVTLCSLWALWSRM
MEASURED_PROPERTY: Ki

compound="O=C1c2cccc3c2[C@@H](CCC3)CN1C1CN2CCC1CC2 (mixture of isomers)" reported_value="0.316 nM"
compound="COc1cccc2c1CCN(C1CC3CCC(C1)N3C)C2=O (stereo not given)" reported_value="10 nM"
compound=O=C(N[C@H]1CN2CCC1CC2)c1c2n(c3ccccc13)CCCC2 reported_value="12.6 nM"
compound="Cc1cccc2c(=O)n(C3CN4CCC3CC4)cc(C)c12.Cl (stereo not given)" reported_value="1 nM"
compound=COc1ccc2c(=O)n([C@@H]3CN4CCC3CC4)cc3c2c1CCC3 reported_value="12.6 nM"

====

// log10(Ki) lookup, one value per entry
target: Serotonin 3 (5-HT3) receptor (Rattus norvegicus, UniProt P35563+Q9JJ16); test: Binding affinity against 5-hydroxytryptamine 3 (5-HT3) receptor in rat brain cortical membranes using radioligand [3H]quipazine
MEASURED_PROPERTY: log10(Ki) (log10 of the value in nM)

molecule=O=c1c2cccc3c2c(cn1[C@H]1CN2CCC1CC2)CC3 measured_property=log10(Ki) reported_value=1.40
molecule=O=c1c2cccc(Cl)c2ccn1[C@@H]1CN2CCC1CC2 measured_property=log10(Ki) reported_value=0.40
molecule="COc1cccc2c(=O)n(C3CC4CCC(C3)N4C)ccc12 (configuration not stated)" measured_property=log10(Ki) reported_value=0.40
molecule=O=C(N[C@@H]1CN2CCC1CC2)c1cccc2c1CCCC2 measured_property=log10(Ki) reported_value=2.30
molecule=Cn1cc(C(=O)N[C@@H]2CN3CCC2CC3)c2ccccc21 measured_property=log10(Ki) reported_value=-0.40
molecule="CN1C2CCC1CC(n1cc3c4c(cccc4c1=O)CCC3)C2 (configuration not stated)" measured_property=log10(Ki) reported_value=-0.10
molecule=CCc1cccc2c(=O)n([C@@H]3CN4CCC3CC4)ccc12.Cl measured_property=log10(Ki) reported_value=-0.70
molecule=CCc1cccc(C(=O)N[C@@H]2CN3CCC2CC3)c1C measured_property=log10(Ki) reported_value=2.70
molecule="Cn1cc(C(=O)NC2CN3CCC2CC3)c2ccccc21 (configuration not stated)" measured_property=log10(Ki) reported_value=0.30
molecule=Cc1cccc(C(=O)N[C@@H]2CN3CCC2CC3)c1C measured_property=log10(Ki) reported_value=2.20
molecule=O=c1c2ccccc2ccn1[C@@H]1CN2CCC1CC2 measured_property=log10(Ki) reported_value=0.60
molecule=COc1cccc(C(=O)N[C@@H]2CN3CCC2CC3)c1C measured_property=log10(Ki) reported_value=2.60

====

molecular target: Serotonin 3 (5-HT3) receptor (Rattus norvegicus, UniProt P35563+Q9JJ16); test: Binding affinity against 5-hydroxytryptamine 3 (5-HT3) receptor in rat brain cortical membranes using radioligand [3H]quipazine
pKi: −log10 of the molar value.
Class (required): determined from pKi; valid ranges are low (below 8), mid (8 to below 9), high (9 or more)

compound="COc1cccc2c1CCN(C1CN3CCC1CC3)C2=O (stereo not given)" qualitative_label=high
compound=O=C1c2cccc3c2[C@H](CCC3)CN1[C@H]1CN2CCC1CC2 qualitative_label=mid
compound="Cc1ccccc1C(=O)NC1CN2CCC1CC2 (stereo not given)" qualitative_label=low
compound=COc1cccc2c(=O)n([C@@H]3CN4CCC3CC4)ccc12.Cl qualitative_label=high
compound=O=C1c2cccc3c2[C@@H](CCC3)CN1[C@H]1CN2CCC1CC2 qualitative_label=mid
compound=Cl.O=c1c2cccc3c2c(cn1[C@@H]1CN2CCC1CC2)CCC3 qualitative_label=high
compound=Cl.O=c1c2cccc3c2c(cn1[C@@H]1CN2CCC1CC2)CCCC3 qualitative_label=high
compound=CN1[C@@H]2CC[C@H]1C[C@@H](OC(=O)c1c[nH]c3ccccc13)C2 qualitative_label=mid
compound="Cc1c(C(=O)NC2CN3CCC2CC3)c2ccccc2n1C (stereo not given)" qualitative_label=low
compound=O=c1c2ccccc2c(-c2ccccc2)cn1[C@@H]1CN2CCC1CC2 qualitative_label=mid
compound="COc1ccc2c3c(cn(C4CN5CCC4CC5)c(=O)c13)CCC2 (stereo not given)" qualitative_label=low
